Hello, the source for this data is ChEMBL document CHEMBL5528025, in case you need it.

Target: Acetylcholinesterase (Homo sapiens)
pIC50: −log10 of the molar value.
Binary call on pIC50: condition met from 7 upward, condition not met beneath that.

O=C(NCCCCCCNc1c2c(nc3ccccc13)CCCC2)Oc1ccc(-c2cc3cccnc3[nH]2)cc1    condition met
O=C(NCCCCCNc1c2c(nc3ccccc13)CCCC2)Oc1ccc2cc[nH]c2c1    condition not met

[in] State whether the measured pIC50 reaches 7, counting equality as reaching it, for C[C@@H](c1cccc(OC(=O)NCCCCCCNc2c3c(nc4cc(F)ccc24)CCCC3)c1)N(C)C
[out] condition met

* * *

Molecular target: Acetylcholinesterase (Homo sapiens)
pIC50: −log10 of the molar value.
Binary call on pIC50: fulfilled from 7 upward, not fulfilled beneath that.

The examples below pair each entry with its known result.
O=C(NCCCCNc1c2c(nc3ccccc13)CCCC2)Oc1ccc2cc[nH]c2c1    not fulfilled
O=C(NCCCCCNc1c2c(nc3cc(F)ccc13)CCCC2)Oc1ccc2cc[nH]c2c1    not fulfilled
C[C@@H](c1cccc(OC(=O)NCCCCCCNc2c3c(nc4cc(Cl)ccc24)CCCC3)c1)N(C)C    fulfilled
C[C@@H](c1cccc(OC(=O)NCCCCCNc2c3c(nc4cc(F)ccc24)CCCC3)c1)N(C)C    fulfilled
O=C(NCCCCNc1c2c(nc3ccccc13)CCCC2)Oc1ccc(-c2cc3cccnc3[nH]2)cc1    not fulfilled

[in] State whether the measured pIC50 reaches 7, counting equality as reaching it, for O=C(NCCCCCNc1c2c(nc3cc(Cl)ccc13)CCCC2)Oc1ccc(-c2cc3cccnc3[nH]2)cc1
[out] fulfilled

[in] How about this compound: O=C(NCCCCCCNc1c2c(nc3cc(Br)ccc13)CCCC2)Oc1ccc(-c2cc3cccnc3[nH]2)cc1
[out] fulfilled

[in] How about this compound: C[C@@H](c1cccc(OC(=O)NCCCCCNc2c3c(nc4cc(Br)ccc24)CCCC3)c1)N(C)C
[out] fulfilled

[in] How about this compound: C[C@@H](c1cccc(OC(=O)NCCCCCCNc2c3c(nc4cc(Br)ccc24)CCCC3)c1)N(C)C
[out] fulfilled

[in] How about this compound: O=C(NCCCCCCNc1c2c(nc3cc(F)ccc13)CCCC2)Oc1ccc2cc[nH]c2c1
[out] not fulfilled

[in] How about this compound: O=C(NCCCCCCNc1c2c(nc3ccccc13)CCCC2)Oc1ccc2cc[nH]c2c1
[out] not fulfilled

[in] How about this compound: C[C@@H](c1cccc(OC(=O)NCCCCCNc2c3c(nc4cc(Cl)ccc24)CCCC3)c1)N(C)C
[out] fulfilled

* * *

For each entry below, report its IC50 value.
Target: Acetylcholinesterase (Homo sapiens, UniProt P22303)
Sequence (P22303 whole entry): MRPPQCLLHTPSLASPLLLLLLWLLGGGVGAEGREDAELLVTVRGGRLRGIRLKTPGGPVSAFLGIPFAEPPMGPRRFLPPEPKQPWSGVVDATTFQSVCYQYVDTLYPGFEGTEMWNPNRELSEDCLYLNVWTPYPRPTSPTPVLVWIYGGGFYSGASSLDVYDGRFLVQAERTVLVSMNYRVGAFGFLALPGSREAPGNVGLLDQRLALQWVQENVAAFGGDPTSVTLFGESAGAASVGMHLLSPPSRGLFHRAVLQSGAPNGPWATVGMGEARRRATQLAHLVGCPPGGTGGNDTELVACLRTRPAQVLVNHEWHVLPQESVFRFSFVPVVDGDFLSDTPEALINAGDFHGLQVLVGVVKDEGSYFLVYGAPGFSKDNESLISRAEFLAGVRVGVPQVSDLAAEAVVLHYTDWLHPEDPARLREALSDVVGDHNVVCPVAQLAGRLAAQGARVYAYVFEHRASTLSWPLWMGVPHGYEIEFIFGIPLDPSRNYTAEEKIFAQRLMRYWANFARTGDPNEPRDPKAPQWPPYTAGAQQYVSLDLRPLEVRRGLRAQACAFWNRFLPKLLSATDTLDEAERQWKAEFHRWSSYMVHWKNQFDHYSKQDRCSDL
Answers are plain numbers, in nM.

O=C(NCCCCCCNc1c2c(nc3cc(Cl)ccc13)CCCC2)Oc1ccc2cc[nH]c2c1    153

Each compound below has a recorded value; state its IC50.
1. O=C(NCCCCCNc1c2c(nc3ccccc13)CCCC2)Oc1ccc(-c2cc3cccnc3[nH]2)cc1
2. C[C@@H](c1cccc(OC(=O)NCCCCCCNc2c3c(nc4ccccc24)CCCC3)c1)N(C)C

[out]
1: 153; 2: 119
